For each entry below, report its conversion rates, mono-C-glycosylation value.
Target: UniProt A0A7G9P699
Sequence (A0A7G9P699 entry or part of it): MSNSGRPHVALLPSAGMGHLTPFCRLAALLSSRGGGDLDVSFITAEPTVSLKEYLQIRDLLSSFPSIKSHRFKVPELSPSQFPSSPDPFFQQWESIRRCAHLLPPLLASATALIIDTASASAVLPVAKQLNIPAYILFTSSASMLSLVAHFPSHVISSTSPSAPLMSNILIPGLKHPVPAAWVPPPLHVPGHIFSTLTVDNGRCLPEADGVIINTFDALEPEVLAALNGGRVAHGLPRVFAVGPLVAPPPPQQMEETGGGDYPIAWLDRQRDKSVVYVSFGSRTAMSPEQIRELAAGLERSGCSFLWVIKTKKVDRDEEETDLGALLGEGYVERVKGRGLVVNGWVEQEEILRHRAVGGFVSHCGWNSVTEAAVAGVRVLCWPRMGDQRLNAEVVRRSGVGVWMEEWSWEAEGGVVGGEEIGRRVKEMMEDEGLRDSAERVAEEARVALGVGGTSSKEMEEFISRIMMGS
Assay: Glycosyltransferase activity assay, purified AbCGT (wild type) with aglycon acceptors and UDP-Glc
Format: biochemical, Aloe barbadensis
Settings: aglycon acceptor with UDP-Glc, pH 7.4, 30 °C, up to 12 h; Reaction-1 to -3
All answers are understood in %, so give the number only.

GET /value?item= COc1ccc(CCc2ccc(O)cc2O)cc1 &field=conversion rates, mono-C-glycosylation returns 100

Lookup result for Cc1cc(=O)oc2cc(O)ccc12 [Compound 24, 7-hydroxy-4-methylcoumarin] ; measured conversion rates, mono-C-glycosylation: 0

Just so you know, measured conversion rates, mono-C-glycosylation for CCCCC(=O)c1c(O)cc(O)cc1O came out at 0

According to the records, this compound CC(=O)c1c(O)cc(O)c(C(C)=O)c1O displays conversion rates, mono-C-glycosylation of 100

The compound identified as COc1ccc(Cc2c(O)cc(O)cc2O)cc1OC registered its conversion rates, mono-C-glycosylation at 100

CC(=O)c1ccc(O)cc1 has a reported conversion rates, mono-C-glycosylation of 0

Value of conversion rates, mono-C-glycosylation reported for the compound COc1cc(O)c(C(C)=O)c(OC)c1 is 0

Per the record, Cc1cc(=O)oc2cc(S)ccc12 has conversion rates, mono-C-glycosylation of 0

Lab note: O=Cc1c(O)cc(O)cc1O gave conversion rates, mono-C-glycosylation of 0

Recorded conversion rates, mono-C-glycosylation (compound O=C(CCc1ccc(O)cc1)c1c(O)cc(O)cc1O ): 0
